Where do these numbers come from? They come from ChEMBL document CHEMBL1155506.

method notes: AUC (0 to last) in Sprague-Dawley rat at 10 mg/kg, po after 24 hrs by HPLC/MS/MS analysis
Format: ADME, organism-based
Set-up: time 0 - last, dose 10 mg/kg, route oral
condition set: plasma
quantity kind: AUC(0-t) at 24 h (ng·h/mL)

{"smiles str": "Cn1nccc1-c1cc(NC(=O)c2ccc(F)cc2F)ccc1OCCN1CCOCC1", "AUC(0-t) at 24 h (ng·h/mL)": 171}

a. COc1cccc(C(=O)Nc2ccc(OCCN3CCOCC3)c(-c3ccnn3C)c2)c1
b. Cn1nccc1-c1cc(NC(=O)c2cccc(C(F)(F)F)c2)ccc1OCCN1CCOCC1
c. Cn1nccc1-c1cc(NC(=O)c2ccc(C(F)(F)F)cc2)ccc1OCCN1CCCC1
Ascending sort, AUC(0-t) at 24 h. Give me the labels in the order the question wants. a, b, c

----------
assayed target: 5-hydroxytryptamine receptor 2A (Homo sapiens, UniProt P28223)
Sequence (P28223 whole entry): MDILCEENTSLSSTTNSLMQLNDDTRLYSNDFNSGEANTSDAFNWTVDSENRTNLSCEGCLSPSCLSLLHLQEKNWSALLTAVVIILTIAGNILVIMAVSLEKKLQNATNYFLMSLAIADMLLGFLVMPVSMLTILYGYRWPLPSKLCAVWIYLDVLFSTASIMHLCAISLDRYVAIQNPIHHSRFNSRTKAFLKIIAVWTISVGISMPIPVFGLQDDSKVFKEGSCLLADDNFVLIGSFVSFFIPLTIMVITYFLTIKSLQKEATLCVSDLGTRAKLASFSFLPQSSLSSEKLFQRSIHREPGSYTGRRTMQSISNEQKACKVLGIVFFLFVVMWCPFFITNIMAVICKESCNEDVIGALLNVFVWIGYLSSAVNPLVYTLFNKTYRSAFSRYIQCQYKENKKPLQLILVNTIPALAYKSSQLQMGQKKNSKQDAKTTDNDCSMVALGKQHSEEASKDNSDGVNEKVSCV
method notes: Displacement of [125I]DOI from human recombinant 5HT2A receptor expressed in HEK293 cells by scintillation counting
pKi: −log10 of the molar value.
quantity kind: pKi

Below, 3 molecules whose answers are already recorded.
{"smiles str": "Cn1nccc1-c1cc(NC(=O)c2cccc(C(F)(F)F)c2)ccc1OCCN1CCNC(=O)C1", "assayed target": "5-hydroxytryptamine receptor 2A (Homo sapiens, UniProt P28223)", "quantity kind": "pKi", "experimental value": 6.54}
{"smiles str": "COc1cccc(C(=O)Nc2ccc(OCCNCCO)c(-c3ccnn3C)c2)c1", "assayed target": "5-hydroxytryptamine receptor 2A (Homo sapiens, UniProt P28223)", "quantity kind": "pKi", "experimental value": 8.74}
{"smiles str": "Cn1ncc(Cl)c1-c1cc(NC(=O)c2cccc(C(F)(F)F)c2)ccc1OCCN1CCNC(=O)C1", "assayed target": "5-hydroxytryptamine receptor 2A (Homo sapiens, UniProt P28223)", "quantity kind": "pKi", "experimental value": 8.28}

A. CC(=O)N1CCN(CCOc2ccc(NC(=O)c3cccc(F)c3)cc2-c2c(Cl)cnn2C)CC1
B. Cn1nccc1-c1cc(NC(=O)c2cccc(C(F)(F)F)c2)ccc1OCCN1CCCC1
Which is greater in pKi, the first item A or the second item B ? Mark your selection by writing its label. B
(B: 9.22, A: 8.66)
